Reported Selectivity index, HCT 116 p53 −/− values for the following compounds.
Tested on: HCT 116 p53^−/− cells
method-notes: MTS cytotoxicity assay, HCT 116 p53-/-
Format: cell-based, human
cond: NHDF vs HCT 116 p53 −/−
// no unit, no text: just the number

These recorded examples may help you get a feel for the data.
1) COc1ccccc1/C=C/c1nc(OS(=O)(=O)c2ccc(C)cc2)c2ccccc2n1    6.71
2) COc1ccccc1/C=C/c1nc(OS(=O)(=O)c2ccc3c(c2)OCO3)c2ccccc2n1    22.27

Give the reported Selectivity index, HCT 116 p53 −/− for this compound. COc1ccccc1/C=C/c1nc(OS(=O)(=O)c2ccc(C)cc2)c2ccc(Cl)cc2n1
39.39

Give Selectivity index, HCT 116 p53 −/− for COc1ccccc1/C=C/c1nc(OS(=O)(=O)c2cc3c(cc2Br)OCO3)c2ccccc2n1
11.94

Supply recorded Selectivity index, HCT 116 p53 −/− for COc1ccc(/C=C/c2nc(OS(=O)(=O)c3ccc(C)cc3)c3ccccc3n2)c(OC)c1 here.
1.15

====

inhibition at 0.5 µM values, listed per item
test-target: Fyn A (Homo sapiens, UniProt P06241)
Construct: purchased Promega
Sequence (P06241 whole entry): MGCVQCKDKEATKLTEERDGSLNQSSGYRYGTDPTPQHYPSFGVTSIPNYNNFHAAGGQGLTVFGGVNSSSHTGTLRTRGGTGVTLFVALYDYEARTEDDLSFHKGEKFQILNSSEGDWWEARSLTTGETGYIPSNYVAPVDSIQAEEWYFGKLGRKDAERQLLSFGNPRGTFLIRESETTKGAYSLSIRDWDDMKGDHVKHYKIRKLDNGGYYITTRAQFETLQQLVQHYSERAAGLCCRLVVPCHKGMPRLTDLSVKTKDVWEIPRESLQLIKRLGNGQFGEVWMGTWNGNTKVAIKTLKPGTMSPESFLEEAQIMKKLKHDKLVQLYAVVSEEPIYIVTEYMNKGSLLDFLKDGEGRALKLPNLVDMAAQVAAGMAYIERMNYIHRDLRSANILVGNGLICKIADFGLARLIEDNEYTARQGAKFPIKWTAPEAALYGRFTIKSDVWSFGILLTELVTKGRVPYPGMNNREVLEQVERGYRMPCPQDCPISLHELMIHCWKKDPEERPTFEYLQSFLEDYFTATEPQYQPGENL
method-notes: Tyrosine kinase assay (Kinase Selectivity TK-2, ADP-Glo)
Type: biochemical
cond: read-out: Inhibitory Effect of the Tyrosine Kinase Activity, Fyn A
Response body: numeric value in %, unit text excluded.

1. COc1ccccc1/C=C/c1nc(OS(=O)(=O)c2ccc3c(c2)OCO3)c2ccccc2n1 [BS1]    23.7
2. COc1ccc(/C=C/c2nc(OS(=O)(=O)c3ccc(C)cc3)c3ccccc3n2)cc1 [BS5]    0
3. COc1ccccc1/C=C/c1nc(OS(=O)(=O)c2ccc(C)cc2)c2ccc(Cl)cc2n1 [BS3]    34.1
4. COc1ccccc1/C=C/c1nc(OS(=O)(=O)c2ccc(C)cc2)c2ccccc2n1 [BS4]    3.51
5. COc1ccccc1/C=C/c1nc(OS(=O)(=O)c2cc3c(cc2Br)OCO3)c2ccccc2n1 [BS2]    0

In the following, a different compound is considered.
Provide only the value of recorded inhibition at 0.5 µM for COc1ccc(/C=C/c2nc(OS(=O)(=O)c3ccc(C)cc3)c3ccccc3n2)c(OC)c1 [BS6]
62.6

====

Tested on: MCF-7 cells
method-notes: MTS cytotoxicity assay, MCF-7
Type: cell-based, human
cond: NHDF vs MCF-7
Each entry below lists one item and its recorded Selectivity index, MCF-7 value.
Field format: numeric only.

Consider the reported Selectivity index, MCF-7 for these molecules:
1. COc1ccccc1/C=C/c1nc(OS(=O)(=O)c2ccc(C)cc2)c2ccccc2n1    2.74
2. COc1ccccc1/C=C/c1nc(OS(=O)(=O)c2cc3c(cc2Br)OCO3)c2ccccc2n1    0.93
3. COc1ccccc1/C=C/c1nc(OS(=O)(=O)c2ccc3c(c2)OCO3)c2ccccc2n1    1.51
4. COc1ccc(/C=C/c2nc(OS(=O)(=O)c3ccc(C)cc3)c3ccccc3n2)c(OC)c1    2.55

Report Selectivity index, MCF-7 for COc1ccccc1/C=C/c1nc(OS(=O)(=O)c2ccc(C)cc2)c2ccc(Cl)cc2n1
2.05

====

Listed here: items and their measured Selectivity index, PANC-1.
Test system: PANC-1 cells
method-notes: MTS cytotoxicity assay, PANC-1
Format: cell-based, human
cond: NHDF vs PANC-1
Reply briefly: the number, and no unit.

Would you please look over these solved cases?
1) COc1ccccc1/C=C/c1nc(OS(=O)(=O)c2ccc(C)cc2)c2ccc(Cl)cc2n1 [BS3]    97.06
2) COc1ccccc1/C=C/c1nc(OS(=O)(=O)c2ccc(C)cc2)c2ccccc2n1 [BS4]    106.38
3) COc1ccccc1/C=C/c1nc(OS(=O)(=O)c2ccc3c(c2)OCO3)c2ccccc2n1 [BS1]    3.15

Then this compound:
Name the recorded Selectivity index, PANC-1 of the item COc1ccccc1/C=C/c1nc(OS(=O)(=O)c2cc3c(cc2Br)OCO3)c2ccccc2n1 [BS2] in your answer.
5.39

====

test-target: BRK (Homo sapiens)
Construct: purchased Promega
Sequence (Q13882 whole entry): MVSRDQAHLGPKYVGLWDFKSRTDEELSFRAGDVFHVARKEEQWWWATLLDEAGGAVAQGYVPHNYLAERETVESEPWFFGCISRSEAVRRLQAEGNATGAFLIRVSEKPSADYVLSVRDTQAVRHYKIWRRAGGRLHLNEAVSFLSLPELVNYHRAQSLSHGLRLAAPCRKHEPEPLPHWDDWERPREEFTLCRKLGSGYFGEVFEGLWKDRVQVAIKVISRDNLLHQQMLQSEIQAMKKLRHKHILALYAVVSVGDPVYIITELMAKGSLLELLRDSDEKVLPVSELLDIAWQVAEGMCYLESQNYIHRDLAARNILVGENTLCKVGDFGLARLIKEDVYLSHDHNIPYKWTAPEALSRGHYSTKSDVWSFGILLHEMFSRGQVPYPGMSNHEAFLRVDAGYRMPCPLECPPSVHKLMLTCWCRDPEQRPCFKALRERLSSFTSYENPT
method-notes: Tyrosine kinase assay (Kinase Selectivity TK-2, ADP-Glo)
Type: biochemical
cond: read-out: Inhibitory Effect of the Tyrosine Kinase Activity, BRK
We use 20% as the dividing line for inhibition at 0.5 µM: on or above the line is class 1, below is class 0.

Example entries begin here.
1) COc1ccc(/C=C/c2nc(OS(=O)(=O)c3ccc(C)cc3)c3ccccc3n2)c(OC)c1    class 0
2) COc1ccccc1/C=C/c1nc(OS(=O)(=O)c2cc3c(cc2Br)OCO3)c2ccccc2n1    class 0

inhibition at 0.5 µM >= 20% for COc1ccccc1/C=C/c1nc(OS(=O)(=O)c2ccc3c(c2)OCO3)c2ccccc2n1 ?
class 0

Check if inhibition at 0.5 µM >= 20% (inclusive). Item: COc1ccccc1/C=C/c1nc(OS(=O)(=O)c2ccc(C)cc2)c2ccccc2n1
class 1

Would you say COc1ccccc1/C=C/c1nc(OS(=O)(=O)c2ccc(C)cc2)c2ccc(Cl)cc2n1 shows inhibition at 0.5 µM at minimum 20%?
class 1

====

test-target: Lck (Homo sapiens, UniProt P06239)
Construct: purchased Promega
Sequence (P06239 whole entry): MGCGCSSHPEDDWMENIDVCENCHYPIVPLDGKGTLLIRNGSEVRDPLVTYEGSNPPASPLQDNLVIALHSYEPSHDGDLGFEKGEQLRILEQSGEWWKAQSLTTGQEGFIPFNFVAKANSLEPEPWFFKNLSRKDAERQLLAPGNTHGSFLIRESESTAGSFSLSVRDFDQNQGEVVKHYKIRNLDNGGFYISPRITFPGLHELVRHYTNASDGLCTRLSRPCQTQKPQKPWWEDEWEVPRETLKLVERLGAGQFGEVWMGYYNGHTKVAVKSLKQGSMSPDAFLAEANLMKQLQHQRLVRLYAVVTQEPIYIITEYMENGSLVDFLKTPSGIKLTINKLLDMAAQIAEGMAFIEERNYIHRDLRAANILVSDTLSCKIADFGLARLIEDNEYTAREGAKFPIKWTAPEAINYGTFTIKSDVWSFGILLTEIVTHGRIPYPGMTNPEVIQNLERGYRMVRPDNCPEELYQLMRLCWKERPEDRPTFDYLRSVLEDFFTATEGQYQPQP
method-notes: Tyrosine kinase assay (Kinase Selectivity TK-2, ADP-Glo)
Assay type: biochemical
cond: read-out: Inhibitory Effect of the Tyrosine Kinase Activity, Lck
Mark fulfilled for reported inhibition at 0.5 µM of 40% or greater; mark not fulfilled for anything smaller.

Example results:
1) COc1ccccc1/C=C/c1nc(OS(=O)(=O)c2ccc(C)cc2)c2ccccc2n1    not fulfilled
2) COc1ccccc1/C=C/c1nc(OS(=O)(=O)c2ccc(C)cc2)c2ccc(Cl)cc2n1    fulfilled
3) COc1ccccc1/C=C/c1nc(OS(=O)(=O)c2ccc3c(c2)OCO3)c2ccccc2n1    not fulfilled

State whether the measured inhibition at 0.5 µM reaches 40%, counting equality as reaching it, for COc1ccccc1/C=C/c1nc(OS(=O)(=O)c2cc3c(cc2Br)OCO3)c2ccccc2n1
not fulfilled

Hi, just wondering whether COc1ccc(/C=C/c2nc(OS(=O)(=O)c3ccc(C)cc3)c3ccccc3n2)c(OC)c1 shows inhibition at 0.5 µM of 40% or higher.
not fulfilled

====

Measured inhibition at 0.5 µM accompanies every entry in the list below.
test-target: Src (Homo sapiens, UniProt P12931)
Construct: purchased Promega
Sequence (P12931 whole entry): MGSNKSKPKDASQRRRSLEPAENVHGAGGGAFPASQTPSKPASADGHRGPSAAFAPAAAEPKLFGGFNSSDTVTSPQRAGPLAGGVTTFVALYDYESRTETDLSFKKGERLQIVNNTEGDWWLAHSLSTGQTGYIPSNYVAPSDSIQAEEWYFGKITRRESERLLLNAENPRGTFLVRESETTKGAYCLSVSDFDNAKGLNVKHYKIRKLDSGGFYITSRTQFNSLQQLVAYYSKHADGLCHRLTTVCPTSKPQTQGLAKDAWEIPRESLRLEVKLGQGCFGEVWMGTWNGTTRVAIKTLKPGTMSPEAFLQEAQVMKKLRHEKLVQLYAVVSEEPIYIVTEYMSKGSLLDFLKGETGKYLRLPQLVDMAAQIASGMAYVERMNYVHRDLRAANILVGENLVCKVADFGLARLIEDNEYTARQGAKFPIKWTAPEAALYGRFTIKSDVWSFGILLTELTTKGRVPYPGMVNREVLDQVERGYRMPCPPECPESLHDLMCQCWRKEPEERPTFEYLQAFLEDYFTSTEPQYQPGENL
method-notes: Tyrosine kinase assay (Kinase Selectivity TK-2, ADP-Glo)
Format: biochemical
cond: read-out: Inhibitory Effect of the Tyrosine Kinase Activity, Src
The figure you give is taken to be in %; do not add the unit.

Some compounds with recorded inhibition at 0.5 µM:
1) COc1ccccc1/C=C/c1nc(OS(=O)(=O)c2ccc(C)cc2)c2ccccc2n1    0
2) COc1ccc(/C=C/c2nc(OS(=O)(=O)c3ccc(C)cc3)c3ccccc3n2)cc1    0
3) COc1ccccc1/C=C/c1nc(OS(=O)(=O)c2cc3c(cc2Br)OCO3)c2ccccc2n1    26.3

In the following, a different compound is considered.
In one line, give reported inhibition at 0.5 µM of the entry COc1ccc(/C=C/c2nc(OS(=O)(=O)c3ccc(C)cc3)c3ccccc3n2)c(OC)c1 .
0
